Target: recombinant human secreted phospholipase A2 (Homo sapiens, UniProt P14555)
Sequence (P14555 21-144): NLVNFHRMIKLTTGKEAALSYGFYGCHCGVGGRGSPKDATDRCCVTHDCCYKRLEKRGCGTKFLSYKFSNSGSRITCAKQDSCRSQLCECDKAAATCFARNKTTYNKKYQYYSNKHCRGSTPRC
Test: Human secreted phospholipase A2 inhibition test (chromogenic assay, diheptanoyl thio-PC substrate)
Format: biochemical
Settings: pH 7.5, 40° C., 30 minutes, 405 nm; read-out: Inhibition of human secreted PLA2 IC50 ± mean deviation (3-5 tests)
pIC50: −log10 of the molar value.
pIC50 below 6 gives False; pIC50 at or above it gives True.

# example entries with known answers
{"compound": "NC(=O)Cc1cn(Cc2ccccc2)c2cc(Cl)c(OCCCP(=O)(O)O)cc12 [Example 92]", "class": "True"}
{"compound": "Cc1c(CC(N)=O)c2c(OCC(=O)NN)cccc2n1Cc1ccccc1 [Example 65]", "class": "True"}
{"compound": "CCCCCCCCCCCCCCn1c(C)c(CC(N)=O)c2cc(OC)ccc21 [Example 48]", "class": "False"}
{"compound": "Cc1c(CC(N)=O)c2cc([N+](=O)[O-])ccc2n1Cc1ccccc1 [Example 16]", "class": "False"}

Next item in the queue.
Q) Is pIC50 for Cc1c(CC(N)=O)c2cc(OCCCC(=O)O)ccc2n1CC1CCCCC1 [Example 54] at or above 6?
A) True
